target: T1, endogenous cell surface human MSLN (human, UniProt Q13421 296-598); test: flow cytometry, NCI-H226 cells
T1 construct: whole, on cells; The cell line is named under assay; also called cell-surface MSLN on NCI-H226, OVCAR-3 and AsPC-1 cells
T1 sequence (Q13421 other isoform, or with tags, fused parts or gaps limits assumed): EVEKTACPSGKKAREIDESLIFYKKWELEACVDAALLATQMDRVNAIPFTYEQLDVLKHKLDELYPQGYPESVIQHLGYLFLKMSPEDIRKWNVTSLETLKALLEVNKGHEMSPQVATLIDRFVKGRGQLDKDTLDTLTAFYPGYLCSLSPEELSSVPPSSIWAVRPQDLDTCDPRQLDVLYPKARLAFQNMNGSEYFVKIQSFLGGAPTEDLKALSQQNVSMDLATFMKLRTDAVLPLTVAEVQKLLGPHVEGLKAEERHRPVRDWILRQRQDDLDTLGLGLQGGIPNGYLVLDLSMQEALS
Consider the following binders; for each one, report its EC50.
Numbers only, in nM.

See these solved cases before continuing.
binder	reportedMeasurement
FS22-172-003-AA/FS28-256-024 (bispecific antibody, human IgG1, kappa, L234A L235A, V domains shown, IgG1 mAb^2 with LALA) VH: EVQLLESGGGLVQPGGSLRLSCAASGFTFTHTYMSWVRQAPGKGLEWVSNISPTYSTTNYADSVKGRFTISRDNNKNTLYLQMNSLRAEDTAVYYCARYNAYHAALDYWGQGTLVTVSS VL: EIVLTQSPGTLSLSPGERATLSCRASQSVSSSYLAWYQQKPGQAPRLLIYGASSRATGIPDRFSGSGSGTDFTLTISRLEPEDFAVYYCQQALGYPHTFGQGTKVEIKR	3.4
FS22-172-003-AA/FS28-256-026 (bispecific antibody, human IgG1, kappa, L234A L235A, V domains shown, IgG1 mAb^2 with LALA) VH: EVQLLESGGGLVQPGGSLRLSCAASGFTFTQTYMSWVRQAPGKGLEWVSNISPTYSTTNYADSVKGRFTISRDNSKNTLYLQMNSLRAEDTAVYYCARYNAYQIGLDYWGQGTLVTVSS VL: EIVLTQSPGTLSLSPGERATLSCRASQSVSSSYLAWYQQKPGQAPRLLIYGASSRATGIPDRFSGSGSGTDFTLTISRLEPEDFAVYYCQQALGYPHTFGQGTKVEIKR	1.47

The record that follows has no EC50 shown yet.
Entry under review: FS22-172-003-AA/FS28-256-023 (bispecific antibody, human IgG1, kappa, L234A L235A, V domains shown, IgG1 mAb^2 with LALA) VH: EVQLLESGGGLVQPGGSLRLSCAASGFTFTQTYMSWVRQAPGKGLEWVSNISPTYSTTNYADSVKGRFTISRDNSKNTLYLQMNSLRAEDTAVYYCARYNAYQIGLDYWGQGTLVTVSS VL: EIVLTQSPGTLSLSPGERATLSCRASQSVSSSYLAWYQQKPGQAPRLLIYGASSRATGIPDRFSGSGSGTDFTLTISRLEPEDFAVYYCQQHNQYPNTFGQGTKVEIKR . Reported EC50? 1.29

The measured values listed here are drawn from patent US12319739.
